System: TC-71 (Ewing's Sarcoma);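 also: after 72 h of two-drug dosing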
protocol summary: Bliss excess, mean over the matrix (fraction); higher = more synergy
Label Criterion met when Bliss excess is at or above 0.1; anything below gets Criterion not met.

These recorded examples may help you get a feel for the data.
CC(=O)Nc1cccc(-n2c(=O)n(C3CC3)c(=O)c3c(Nc4ccc(I)cc4F)n(C)c(=O)c(C)c32)c1 [Trametinib] + Cc1nc(-c2cn3c(n2)-c2ccc(-c4cnn(C(C)(C)C(N)=O)c4)cc2OCC3)n(C(C)C)n1 [Taselisib] (first compound max 1 µM, 7x7, partner max 10 µM) : Criterion met
COc1cccc2c1C(=O)c1c(O)c3c(c(O)c1C2=O)C[C@@](O)(C(=O)CO)C[C@@H]3O[C@H]1C[C@H](N)[C@H](O)[C@H](C)O1 [Doxorubicin] + Cc1cc2ncnn2cc1Nc1ncc2c(n1)n(C1CCOCC1)c(=O)n2C [AZD7648] (first compound max 1 µM, 7x7, partner max 10 µM) : Criterion met
NC1(C(=O)N[C@@H](CCO)c2ccc(Cl)cc2)CCN(c2ncnc3[nH]ccc23)CC1 [Capivasertib] + CC(C)n1c(=O)n(C)c2cnc3cc(F)c(-c4ccc(OCCCN5CCCCC5)nc4)cc3c21 [AZD1390] (first compound max 10 µM, 7x7, partner max 0.3 µM) : Criterion not met
CN(C)CCCOc1ccc(-c2ccc3ncc4c(c3c2)n(C2CCOCC2)c(=O)n4C)cn1 [AZD0156] + O=C(c1cc(Cc2n[nH]c(=O)c3ccccc23)ccc1F)N1CCN(C(=O)C2CC2)CC1 [Olaparib] (first compound max 3 µM, partner max 3 µM) : Criterion met
COc1cccc(OCCCN)c1-c1cc(Nc2cnc(C#N)cn2)n[nH]1 [Prexasertib] + Cc1cc2ncnn2cc1Nc1ncc2c(n1)n(C1CCOCC1)c(=O)n2C [AZD7648] (first compound max 1 µM, 7x7, partner max 10 µM) : Criterion not met
CN(C)CCCOc1ccc(-c2ccc3ncc4c(c3c2)n(C2CCOCC2)c(=O)n4C)cn1 [AZD0156] + C=CCn1c(=O)c2cnc(Nc3ccc(N4CCN(C)CC4)cc3)nc2n1-c1cccc(C(C)(C)O)n1 [AZD1775] (first compound max 1 µM, partner max 1 µM) : Criterion not met

Here is another compound to look at.
Ask: Answer whether Bliss excess of COc1cccc(OCCCN)c1-c1cc(Nc2cnc(C#N)cn2)n[nH]1 [Prexasertib] + CCc1c2c(nc3ccc(O)cc13)-c1cc3c(c(=O)n1C2)COC(=O)[C@]3(O)CC [SN-38] (first compound max 1 µM, 7x7, partner max 0.3 µM) is greater than or equal to 0.1.
Reply: Criterion not met
